Cited source for all entries: patent US20260125375A1

# system under test: C-CBL (Homo sapiens, UniProt P22681)
# Construct: endogenous in cells; host or cells: Jurkat HiBit-IL2 reporter cells, CBL-B knocked out by CRISPR
# run description: Jurkat HiBit-IL2 assay (CBL-B KO), reporter cell line expressing C-CBL only
# Format: cell-based
# experimental context: CBL-B KO (expressing C-CBL only), geometric mean, Table 16b (further repetition), read-out: CBL-B KO EC50 (nM) GMean
EC50 values for the compounds below.
quantity measured: EC50

INSERT INTO results (compound, readout_value) VALUES
  ('C[C@@H](NC1CC[C@H]1O)c1nc(C(F)(F)F)cc2c(-c3cccc([C@H](c4nncn4C)C4CCC4)c3)n[nH]c12 (single isomer, unassigned) [Example D31]', '258 nM'),
  ('C[C@H](N[C@H]1C[C@@H](F)C1)c1nc(C(F)(F)F)cc2c(-c3cccc([C@H](c4nncn4C)C4CCC4)c3)n[nH]c12 (single isomer, unassigned) [Example C95]', '230 nM'),
  ('C[C@H](N)c1nc(C(F)(F)F)cc2c(-c3cccc([C@H](c4nncn4C)C4CCC4)c3)n[nH]c12 [Example K12]', '2080 nM'),
  ('C[C@H](CO)N[C@H](C)c1nc(C(F)(F)F)cc2c(-c3cccc([C@H](c4nncn4C)C4CCC4)c3)n[nH]c12 (single isomer, unassigned) [Example C44]', '356 nM'),
  ('C[C@@H](N[C@@H]1CCC(F)(F)C1)c1nc(C(F)(F)F)cc2c(-c3cccc(C4(Cc5nncn5C)COC4)c3)n[nH]c12 (single isomer, unassigned) [Example C18]', '49 nM');
